test system: redroot pigweed (Amaranthus retroflexus); test: Test G Post-Emergence Protocol; type: in vivo; conditions: Amaranthus retroflexus, post-emergence, 312 h, 15.625 g ai/ha, evaluated after 13 days (100=total damage to plant; 0=no damage to plant), read-out: Pigweed, Redroot damage rating
Entries annotated with measured pest or weed control at 15.625 g/ha

| compound | pest or weed control at 15.625 g/ha (%) |
| --- | --- |
| CN1C[C@H](c2ccc(F)c(C#N)c2)[C@@H](C(=O)Nc2ccccc2S(C)(=O)=O)C1=O (racemic) [Compound 1798] | 0 |
| CN1C[C@@H](c2ccc(C(F)(F)F)cc2)[C@H](C(=O)Nc2nccnc2Cl)C1=O (racemic) [Compound 1552] | 0 |
| CN1C[C@@H](c2ccc(C(F)(F)F)cc2)[C@H](C(=O)Nc2nn[nH]n2)C1=O (racemic) [Compound 1612] | 0 |
| Cc1ccc([C@H]2CN(C)C(=O)[C@@H]2C(=O)Nc2cccc3c2S(=O)(=O)CC3)cc1 (racemic) [Compound 1739] | 0 |
| Cc1cc(NC(=O)[C@@H]2C(=O)N(C)C[C@H]2c2ccc(C(F)(F)F)cc2)ccn1 (racemic) [Compound 1600] | 0 |
| CN1C[C@H](c2ccc(F)c(OCC(F)(F)F)c2)[C@@H](C(=O)Nc2ccccc2F)C1=O (racemic) [Compound 1456] | 0 |
| CCOc1cc([C@@H]2CN(C)C(=O)[C@H]2C(=O)Nc2cccc(F)c2C)ccc1F (racemic) [Compound 1767] | 0 |
| CN1C[C@@H](c2ccc(C(F)(F)F)nc2)[C@H](C(=O)Nc2ccccc2F)C1=O (racemic) [Compound 1419] | 10 |
| CN1C[C@@H](c2ccc(C(F)(F)F)cc2)[C@H](C(=O)Nc2ccno2)C1=O (racemic) [Compound 1513] | 0 |
| C=C(C)c1ccccc1NC(=O)[C@H]1C(=O)N(C)C[C@@H]1c1cccc(C(F)(F)F)c1 (racemic) [Compound 1736] | 0 |
| CN1C[C@H](c2cccc(C(F)(F)F)c2)[C@@H](C(=O)Nc2c(O)cccc2F)C1=O (racemic) [Compound 1808] | 0 |

----------
test system: giant foxtail (Setaria faberi); test: Test G Pre-Emergence Protocol; type: in vivo; details: Setaria faberi, pre-emergence, 312 h, 250 g ai/ha, evaluated after 13 days, read-out: Foxtail, Giant damage rating (100=total damage to plant; 0=no damage to plant)
experimental endpoint: pest or weed control at 250 g/ha (%)

| compound | numeric result |
| --- | --- |
| CN1C[C@H](c2cccc(C(F)(F)F)c2)[C@@H](C(=O)Nc2cccnc2F)C1=O (racemic) [Compound 1809] | 90 |
| CCOc1ccc(C2CN(C)C(=O)C2C(=O)Nc2cccc(F)c2F)cc1OCC (stereo not drawn) [Compound 1716] | 90 |
| Cc1nnc(NC(=O)[C@@H]2C(=O)N(C)C[C@H]2c2ccc(C(F)(F)F)cc2)s1 (racemic) [Compound 1559] | 0 |
| CN1C[C@H](c2ccc(C(F)(F)F)cc2)[C@@H](C(=O)Nc2ccc(F)cn2)C1=O (racemic) [Compound 1450] | 90 |
| CN1C[C@H](c2cccc(C(F)F)c2)[C@@H](C(=O)Nc2ccccc2F)C1=O (racemic) [Compound 1464] | 90 |
| CN1CC(c2ccc(Cl)c([N+](=O)[O-])c2)C(C(=O)Nc2cccc(F)c2F)C1=O (stereo not drawn) [Compound 1685] | 90 |
| CN1C[C@H](c2ccnc(C(C)(C)C)n2)[C@@H](C(=O)Nc2cccc(F)c2F)C1=O (racemic) [Compound 1769] | 90 |
| CN1C[C@@H](c2ccc(C(F)(F)F)cc2)[C@H](C(=O)Nc2cccc(F)c2C(F)(F)F)C1=O (racemic) [Compound 1609] | 80 |
| CN1C[C@@H](c2ccc(C(F)(F)F)cc2)[C@H](C(=O)Nc2nccnc2Cl)C1=O (racemic) [Compound 1552] | 0 |
| CN1C[C@@H](c2ccc(C(F)(F)F)nc2)[C@H](C(=O)Nc2ccccc2F)C1=O (racemic) [Compound 1419] | 90 |
| CON1C[C@H](c2ccc(C(F)(F)F)cc2)[C@@H](C(=O)Nc2cccc(F)c2F)C1=O (racemic) [Compound 1836] | 90 |
| CN1C[C@H](c2ccc(C(F)(F)F)cc2)[C@@H](C(=O)Nc2cnccc2[N+](=O)[O-])C1=O (racemic) [Compound 1729] | 0 |
| Cc1cc(C(F)(F)F)ccc1[C@@H]1CN(C)C(=O)[C@H]1C(=O)Nc1ccccc1F (racemic) [Compound 1415] | 80 |
| CN1C[C@H](c2ccc(C(F)(F)F)cc2)[C@@H](C(=O)Nc2ccccc2C(C)(C)C)C1=O (racemic) [Compound 1445] | 0 |
| CN1C[C@@H](c2ccc(C(F)(F)F)cc2)[C@H](C(=O)Nc2nc[nH]n2)C1=O (racemic) [Compound 1534] | 0 |

----------
system: ragweed (common ragweed, Ambrosia elatior); assay: Test A postemergence; assay type: in vivo; conditions: Postemergence, 500 g ai/ha; 0 to 100 scale where 0 is no effect and 100 is complete control
Entries annotated with measured Plant response rating, Ragweed

| molecule | Plant response rating, Ragweed |
| --- | --- |
| O=C1NCC(c2cccc(C(F)(F)F)c2F)C1C(=O)Nc1ccccc1F (stereo not shown) | 0 |
| CN1CC(c2cccc(C(F)(F)F)c2)C(C(=O)Nc2ccccc2[N+](=O)[O-])C1=O (stereo not shown) | 20 |
| CC(C)Oc1cccc(C2CNC(=O)C2C(=O)Nc2ccc(F)c(F)c2F)c1 (stereo not shown) | 30 |
| CN1CC(c2ccc(C(F)(F)F)cc2F)C(C(=O)Nc2ccccc2F)C1=O (stereo not shown) | 0 |
| O=C1NCC(c2cc(C(F)(F)F)ccc2F)C1C(=O)Nc1ccccc1F (stereo not shown) | 0 |
| C#CCN1CC(c2cccc(C(F)(F)F)c2)C(C(=O)Nc2ccccc2F)C1=O (stereo not shown) | 0 |
| C=C(C)CN1CC(c2cccc(C(F)(F)F)c2)C(C(=O)Nc2cccc(F)c2F)C1=O (stereo not shown) | 0 |
| O=C1NCC(c2cc(F)cc(C(F)(F)F)c2)C1C(=O)Nc1cccc(F)c1F (stereo not shown) | 20 |
| C=C(Cl)CN1CC(c2cccc(C(F)(F)F)c2)C(C(=O)Nc2ccccc2F)C1=O (stereo not shown) | 0 |
| CN1CC(c2cccc(OC(F)(F)C(F)F)c2)C(C(=O)Nc2ccccc2F)C1=O (stereo not shown) | 50 |

----------
Entries annotated with measured Plant response rating, Oilseed Rape
system: oilseed rape (Brassica napus); experiment: Test C preemergence; type: in vivo; conditions: 125 g ai/ha, scale 0 to 100, 0 no effect, 100 complete control
From the text: […]

| molecule | measured target | Plant response rating, Oilseed Rape |
| --- | --- | --- |
| CN1C[C@H](c2ccc(F)c(F)c2)[C@@H](C(=O)Nc2ccccc2F)C1=O [Compound 596] | oilseed rape (Brassica napus) | 30 |
| O=C1NCC(c2cccc(OC(F)(F)C(F)F)c2)C1C(=O)Nc1cccc(F)c1F (racemic) [Compound 697] | oilseed rape (Brassica napus) | 80 |
| CN1CC(c2cc(F)cc(F)c2)C(C(=O)Nc2ccc(F)c(F)c2F)C1=O (stereo not shown) [Compound 646] | oilseed rape (Brassica napus) | 85 |
| CN1CC(c2cccc(OC(F)(F)C(F)F)c2)C(C(=O)Nc2ccc(F)c(F)c2F)C1=O (stereo not shown) [Compound 429] | oilseed rape (Brassica napus) | 90 |
| CN1CC(c2cccc(OC(F)(F)C(F)F)c2)C(C(=O)Nc2ccccc2C(F)(F)F)C1=O (stereo not shown) [Compound 431] | oilseed rape (Brassica napus) | 85 |
| O=C1NCC(c2ccc3c(c2)OC(F)(F)O3)C1C(=O)Nc1cccc(F)c1F (stereo not shown) [Compound 635] | oilseed rape (Brassica napus) | 90 |
| O=C1NCC(c2ccc(I)cc2)C1C(=O)Nc1cccc(F)c1F (racemic) [Compound 700] | oilseed rape (Brassica napus) | 60 |

----------
tested on: ryegrass, Italian (Italian ryegrass, Lolium multiflorum); assay: Test A preemergence; type: in vivo; settings: Lolium multiflorum, pre-emergence, 240 h, 31 g ai/ha, Preemergence; 0 to 100 scale where 0 is no effect and 100 is complete control; read-out: Ryegrass, Italian plant response rating
Entries annotated with measured pest or weed control at 31 g/ha

| compound | pest or weed control at 31 g/ha (%) |
| --- | --- |
| Cc1c(F)cccc1NC(=O)[C@H]1C(=O)N(C)C[C@@H]1c1ccc2c(c1)C(F)(F)C(F)(F)O2 | 20 |
| CN1C[C@H](c2csc3c2CCC3)[C@@H](C(=O)Nc2ccccc2S(C)(=O)=O)C1=O | 0 |
| Cn1ccc2ccc([C@H]3CNC(=O)[C@@H]3C(=O)Nc3ccccc3F)cc21 | 0 |
| O=C(Nc1cccc(F)c1F)C1C(=O)N(CC(F)F)CC1c1cccc(C(F)(F)F)c1 (stereo not shown) | 0 |
